# Test system: Estrogen receptor (Bos taurus)
# experiment_summary: In vitro relative binding affinity for Estrogen receptor compared to [3H]estradiol
property_measured: RBA (%)

{"molecule": "CCC1(c2cccc(O)c2)OC1(CC)c1cccc(O)c1 (stereo not given)", "tested_system": "Estrogen receptor (Bos taurus)", "RBA (%)": 5.4}
{"molecule": "CC(=O)Oc1cccc(C2(C)OC2(C)c2cccc(OC(C)=O)c2)c1 (stereo not given)", "tested_system": "Estrogen receptor (Bos taurus)", "RBA (%)": 0.8}
{"molecule": "CCCC/C(=C(/CCCC)c1cccc(OC(C)=O)c1)c1cccc(OC(C)=O)c1", "tested_system": "Estrogen receptor (Bos taurus)", "RBA (%)": 0.6}
{"molecule": "CC/C(=C(/CC)c1cccc(O)c1)c1cccc(O)c1", "tested_system": "Estrogen receptor (Bos taurus)", "RBA (%)": 3.2}
{"molecule": "CCCC1(c2cccc(OC(C)=O)c2)OC1(CCC)c1cccc(OC(C)=O)c1 (stereo not given)", "tested_system": "Estrogen receptor (Bos taurus)", "RBA (%)": 1.7}

P. CC/C(=C(/CC)c1cccc(OC(C)=O)c1)c1cccc(OC(C)=O)c1
Q. CCC1(c2cccc(OC(C)=O)c2)OC1(CC)c1cccc(OC(C)=O)c1 (stereo not given)
R. CCC/C(=C(/CCC)c1cccc(OC(C)=O)c1)c1cccc(OC(C)=O)c1
S. CCCCC1(c2cccc(OC(C)=O)c2)OC1(CCCC)c1cccc(OC(C)=O)c1 (stereo not given)
T. CC(=O)Oc1cccc(/C(C)=C(\C)c2cccc(OC(C)=O)c2)c1
Q) Please put the entries in order of rising RBA. # list labels per requested ordering
A) T, S, R, P, Q
(T: 0.4%, S: 0.8%, R: 1.3%, P: 2.2%, Q: 4.2%)

---

# tested_system: Estrogen receptor (Mus musculus) (UniProt O08537+P19785)
# Sequence (O08537 whole entry, looked up): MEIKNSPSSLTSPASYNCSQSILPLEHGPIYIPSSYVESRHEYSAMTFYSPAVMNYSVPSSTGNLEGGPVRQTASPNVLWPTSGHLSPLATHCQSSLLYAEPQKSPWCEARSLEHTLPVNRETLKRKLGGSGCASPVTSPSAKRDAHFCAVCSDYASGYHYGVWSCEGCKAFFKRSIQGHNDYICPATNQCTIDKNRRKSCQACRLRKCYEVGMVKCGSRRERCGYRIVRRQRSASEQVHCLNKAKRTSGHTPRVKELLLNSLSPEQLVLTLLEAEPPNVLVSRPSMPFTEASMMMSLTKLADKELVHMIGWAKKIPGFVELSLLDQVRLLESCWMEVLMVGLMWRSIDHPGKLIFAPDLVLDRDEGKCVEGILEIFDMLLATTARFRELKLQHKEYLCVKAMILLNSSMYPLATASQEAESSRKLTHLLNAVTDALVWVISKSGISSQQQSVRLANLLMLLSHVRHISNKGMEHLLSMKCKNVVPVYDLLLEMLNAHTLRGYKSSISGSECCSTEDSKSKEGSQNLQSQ
# Sequence (P19785 whole entry, looked up): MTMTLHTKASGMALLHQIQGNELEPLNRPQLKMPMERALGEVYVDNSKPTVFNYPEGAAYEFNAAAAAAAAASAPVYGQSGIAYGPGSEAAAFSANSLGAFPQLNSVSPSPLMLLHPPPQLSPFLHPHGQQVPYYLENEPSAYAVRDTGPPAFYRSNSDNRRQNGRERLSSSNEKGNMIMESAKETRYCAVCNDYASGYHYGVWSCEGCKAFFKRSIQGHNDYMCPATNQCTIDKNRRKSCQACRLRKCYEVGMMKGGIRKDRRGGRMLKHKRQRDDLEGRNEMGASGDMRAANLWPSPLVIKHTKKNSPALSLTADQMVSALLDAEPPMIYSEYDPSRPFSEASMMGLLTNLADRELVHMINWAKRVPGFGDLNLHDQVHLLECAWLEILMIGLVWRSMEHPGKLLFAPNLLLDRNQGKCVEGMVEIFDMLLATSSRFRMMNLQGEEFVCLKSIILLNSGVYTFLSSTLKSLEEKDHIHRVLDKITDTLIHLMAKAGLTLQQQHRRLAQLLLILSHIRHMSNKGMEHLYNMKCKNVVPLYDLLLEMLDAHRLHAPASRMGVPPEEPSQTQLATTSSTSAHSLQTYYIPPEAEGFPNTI
# experiment_summary: Percent inhibition of estrone-stimulated uterine growth in immature mouse at 50 ug dose
# Type: functional
property_measured: inhibition (%)

{"compound": "CCCCC1(c2cccc(OC(C)=O)c2)OC1(CCCC)c1cccc(OC(C)=O)c1 (centres undefined)", "tested_system": "Estrogen receptor (Mus musculus) (UniProt O08537+P19785)", "test_result": 2.2}

I. CCC1(c2cccc(O)c2)OC1(CC)c1cccc(O)c1 (centres undefined)
II. CCC1(c2cccc(OC(C)=O)c2)OC1(CC)c1cccc(OC(C)=O)c1 (centres undefined)
Q) Compare the recorded inhibition of I and II ; state which is larger. Let me know the label of the one you choose.
A) I

---

# tested_system: Estrogen receptor (Mus musculus) (UniProt O08537+P19785)
# experiment_summary: Percent inhibition of estrone-stimulated uterine growth in immature mouse at 100 ug dose
# Type: functional
property_measured: inhibition (%)

{"molecule": "CCCC1(c2cccc(OC(C)=O)c2)OC1(CCC)c1cccc(OC(C)=O)c1 (stereo not given)", "inhibition (%)": 0}

a. CCCCC1(c2cccc(OC(C)=O)c2)OC1(CCCC)c1cccc(OC(C)=O)c1 (stereo not given)
b. CCC1(c2cccc(O)c2)OC1(CC)c1cccc(O)c1 (stereo not given)
c. CCC1(c2cccc(OC(C)=O)c2)OC1(CC)c1cccc(OC(C)=O)c1 (stereo not given)
d. CC(=O)Oc1cccc(C2(C)OC2(C)c2cccc(OC(C)=O)c2)c1 (stereo not given)
Q) Hey, quick one: sort these by inhibition, low to high? # respond with the labels, arranged in the requested order
A) c, a, b, d

---

# tested_system: Estrogen receptor (Mus musculus) (UniProt O08537+P19785)
# experiment_summary: Antiuterotrophic activity in mice at 5 ug dose
# Format: functional
property_measured: Effect

{"molecule": "CC/C(=C(/CC)c1cccc(O)c1)c1cccc(O)c1", "Effect": 28.1}
{"molecule": "CCC1(c2cccc(O)c2)OC1(CC)c1cccc(O)c1 (stereo unspecified)", "Effect": 27.6}
{"molecule": "CCCCC1(c2cccc(OC(C)=O)c2)OC1(CCCC)c1cccc(OC(C)=O)c1 (stereo unspecified)", "Effect": 32.4}
{"molecule": "CCCC1(c2cccc(OC(C)=O)c2)OC1(CCC)c1cccc(OC(C)=O)c1 (stereo unspecified)", "Effect": 34.1}
{"molecule": "CC(=O)Oc1cccc(C2(C)OC2(C)c2cccc(OC(C)=O)c2)c1 (stereo unspecified)", "Effect": 37.9}
{"molecule": "CCC1(c2cccc(OC(C)=O)c2)OC1(CC)c1cccc(OC(C)=O)c1 (stereo unspecified)", "Effect": 33.2}

---

# tested_system: Estrogen receptor (Mus musculus) (UniProt O08537+P19785)
# experiment_summary: Antiuterotrophic activity in mice at 100 ug dose
# Format: functional
property_measured: Effect

{"compound": "CCC1(c2cccc(OC(C)=O)c2)OC1(CC)c1cccc(OC(C)=O)c1 (stereo not given)", "test_result": 43.7}
{"compound": "CCCC1(c2cccc(OC(C)=O)c2)OC1(CCC)c1cccc(OC(C)=O)c1 (stereo not given)", "test_result": 39.4}
{"compound": "CCCCC1(c2cccc(OC(C)=O)c2)OC1(CCCC)c1cccc(OC(C)=O)c1 (stereo not given)", "test_result": 42.4}
{"compound": "CC(=O)Oc1cccc(C2(C)OC2(C)c2cccc(OC(C)=O)c2)c1 (stereo not given)", "test_result": 32.6}
{"compound": "CCC1(c2cccc(O)c2)OC1(CC)c1cccc(O)c1 (stereo not given)", "test_result": 42.2}

---

# tested_system: Estrogen receptor (Mus musculus) (UniProt O08537+P19785)
# experiment_summary: Antiuterotrophic activity in mice at 50 ug dose
# Assay type: functional
property_measured: Effect

{"compound": "CCCCC1(c2cccc(OC(C)=O)c2)OC1(CCCC)c1cccc(OC(C)=O)c1 (centres undefined)", "test_result": 42}
{"compound": "CC/C(=C(/CC)c1cccc(O)c1)c1cccc(O)c1", "test_result": 29.1}
{"compound": "CCC1(c2cccc(OC(C)=O)c2)OC1(CC)c1cccc(OC(C)=O)c1 (centres undefined)", "test_result": 36.4}
{"compound": "CCC1(c2cccc(O)c2)OC1(CC)c1cccc(O)c1 (centres undefined)", "test_result": 33}
